Test system: Leishmania donovani
Assay: Antileishmanial activity against Leishmania donovani
Format: functional, organism-based
Exercise: state measured IC90 for each of the compounds provided.
Answers are plain numbers, in µM.

# example entries with known answers
Input: May I ask what IC90 has been recorded for N=C(N)c1ccc(OCCCCCOc2ccc(C(=N)N)cc2)cc1 ?
Output: 19.1

Input: May I ask what IC90 has been recorded for CCCCCc1cc(O)c2c(c1OC(C)=O)OC(C)(CCC=C(C)C)C=C2 (racemic) ?
Output: 91.3

Input: May I ask what IC90 has been recorded for CCCCCc1c(C/C=C(\C)CCC=C(C)C)c(O)cc(O)c1OC(C)=O ?
Output: 85.4

Input: May I ask what IC90 has been recorded for CCCCCc1cc(O)c(C/C=C(\C)CCC=C(C)C)c(OC(C)=O)c1O ?
Output: 18.7

Field: next compound
Input: May I ask what IC90 has been recorded for C=C(C)C(O)CCC1(C)C=Cc2c(O)cc(CCCCC)cc2O1 (racemic) ?
Output: 96.8

Measured values drawn from ChEMBL document CHEMBL1151952 for this set.
